The values you see were collected from the supplement of paper PMC10567573.

Recorded protein stability index values for a group of variants are listed next.
B1: ALKBH7 (parent)
chain: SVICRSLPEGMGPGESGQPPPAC

- Variants of: B1
- Procedure Text: protein stability index of a GFP-peptide fusion (GPS, HEK-293T) (PSI 1-6); higher = more stable;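 also: lentivirally expressed fusions sorted by FACS into six bins by GFP to DsRed ratio, PSI derived from sequencing read proportions per bin multiplied by bin number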
- Condition Notes: c terminus: native
Answer with a number only.

In the examples that follow, each entry is paired with its recorded protein stability index.
E15C : 1.01
V2T : 2.9
G12Q : 2
C23S : 2.99
E15T : 2.01

Could you now look at the following variant, please?
Exercise: Please look at this variant and report its protein stability index: G14H
Solution: 2.07
